Test system: HCT-15 colon
Assay: NCI-60 one-dose screen, 48 h (100 = growth as untreated, 0 = no growth, -100 = all killed)
Conditions: 10 µM
The panel holds about 83,000 compounds, 20% with a hit somewhere; the sample as a whole holds those more often.
Overview of reported growth across a group of compounds:
Quick reminder: number only, in %, skip the unit.

Reference set (6 entries):
compound=Cc1ccc(-c2cc(C(=O)Nc3ccc(S(=O)(=O)N4CCCCC4)cc3)[nH]n2)c(O)c1 meas_value=23.5
compound=CCN(CC)CCOC(=O)c1ccc(N=Nc2ccc(O)c(OC)c2)cc1 meas_value=103
compound=Fc1cc(-c2ncc(-c3cc(F)c(F)c(F)c3)c(NC3CCCCCC3)n2)cc(F)c1F meas_value=97
compound=O=C(Nc1ccc(OCc2nnc(-c3ccccc3)o2)c(F)c1)Nc1ccc(Cl)c(Cl)c1 meas_value=49.4
compound=CC1(C)CC(OCCCC[P+](c2ccccc2)(c2ccccc2)c2ccccc2)CC(C)(C)N1O meas_value=9.52
compound=N#Cc1ncc(-c2cc(F)ccc2F)c(NC2CCCCCC2)n1 meas_value=82.8

## Input Form field: reported growth of "O=C(CSc1nnc(-c2ccc(Cl)cc2)o1)c1ccccc1"
## Output 99

## Input Could you tell me which growth is on file for "Cc1ccc(S(=O)(=O)N2CCc3ccccc3CC2)cc1" ?
## Output 78.4

## Input What growth value was documented for this compound, "COc1ccc(-c2nnc(COc3ccc(NC(=O)Nc4cccc(C(F)(F)F)c4)cc3F)o2)cc1" ?
## Output 46.1

## Input Return reported growth; argument: NC(=O)C1CCCN(Cc2c[nH]c3ccccc23)C1 (stereo not drawn)
## Output 102

## Input Which growth reading was recorded for the compound "CCn1nc(-c2ccc(C(=O)OC)cc2)nc2c(=O)n(C)c(=O)nc1-2" ?
## Output 64.1

## Input Query (compound): Nc1nc2c(ncn2C2OC3COP(=O)(O)OC4C(COP(=O)(O)OC2C3O)OC(n2cnc3c(N)ncnc32)C4O)c(=O)[nH]1 (stereo not drawn) ; field requested: growth
## Output 106

## Input State the recorded growth for this entry: "CC(C)C[C@H](NC(=O)Cn1ccc(Nc2ccccc2)cc1=O)B(O)O"
## Output 72.1

* * *

Test system: HOP-62 NSCLC
Experiment: NCI-60 one-dose screen, 48 h
Conditions: 10 µM
This is part of a sample that, as a whole, favours compounds with a hit. Of some 83,000 tested, about 20% had one in any assay. Activity calls are given as the source filed them. The calls were made as follows: active = growth percent below 10; inactive = the rest.
Respond only with the outcome that fits, drawn from t for active, f for inactive

compound=CCCCCCN=C(N)CCCCCCCCCCC(N)=NCCCCCC group=f
compound=CCOC(=O)c1sc(NC(=O)c2cc(OC)c(OC)c(OC)c2)nc1C group=f
compound=CCOC(=O)c1c(C)n(-c2ccc(Cl)cc2)c2ccc(OC(=O)/C=C/c3ccccc3)cc12 group=f
compound=COc1cc(OC)cc(-c2ccc(-c3ccc(C(=N)N)cn3)o2)c1 group=t
compound=CCc1nn2c(-c3cc(OC)c(OC)c(OC)c3)c(-c3cc(OC)c(OC)c(OC)c3)nc2s1 group=f
compound=O=C(/C=C/c1nnc2n(Cc3ccccc3)c(=O)c3c4c(sc3n12)CCCC4)c1ccccc1 group=f

Here is another compound to look at.
## Input Test call for this compound, please: "CCCCCCCCCCCCCCCCCBr"
## Output f
